Test system: A549 (human lung cancer)
TEST_PROTOCOL: Cytotoxicity, MTT assay, A549
Format: cell-based
PARTICULARS: mean ± S.D. (n = 3), MTT assay
Binary label based on IC50 with cut-off 30 µM: below gives Yes, not below gives No.

# example entries with known answers
# COMPOUND, CLASS
records = [
    ("CC(C)CC=CC(C)(O)C1CCC2C3C(O)CC4CC(=O)CCC4(C)C3CC(O)C21C (stereo not drawn)", "No"),
    ("CC(CCC(C)(O)[C@H]1CC[C@H]2[C@@H]3[C@H](O)C[C@H]4CC(=O)CC[C@]4(C)[C@H]3C[C@@H](O)[C@]12C)C1CC1C (stereo partly drawn)", "No"),
    ("C[C@H](CC[C@](C)(O)[C@H]1CC[C@H]2[C@@H]3CC[C@H]4CC(=O)CC[C@]4(C)[C@H]3C[C@@H](O)[C@@]21C)[C@H]1C[C@@H]1C", "Yes"),
    ("C[C@H](CC[C@](C)(O)[C@H]1CC[C@@]2(O)[C@@H]3CC[C@H]4C[C@H](O)CC[C@]4(C)[C@H]3C[C@@H](O)[C@]12C)[C@@H]1C[C@H]1C", "No"),
]

Q: Item C[C@H](CC[C@](C)(O)[C@H]1CC[C@H]2[C@@H]3CC[C@H]4C[C@H](O)CC[C@]4(C)[C@H]3C[C@@H](O)[C@@]21C)[C@@H]1C[C@H]1C : IC50 beneath 30 µM, strictly?
Ans: No

Q: Item COC1(OC)CC[C@@]2(C)C(CC[C@H]3C4CC[C@H]([C@@](O)(CO)[C@H](O)C[C@@H](C)[C@@H]5C[C@H]5C)[C@@]4(C)[C@H](O)C[C@@H]32)C1 (stereo partly drawn) : IC50 beneath 30 µM, strictly?
Ans: Yes

Q: Item COc1cccc2c1C(=O)c1c(O)c3c(c(O)c1C2=O)C[C@@](O)(C(=O)CO)C[C@@H]3O[C@H]1C[C@H](N)[C@H](O)[C@H](C)O1 [Doxorubicin, reference compound] : IC50 beneath 30 µM, strictly?
Ans: Yes

Q: Item C[C@@H]1C[C@H]1[C@H](C)C[C@@H](O)[C@@]1([C@H]2CC[C@H]3[C@@H]4CC[C@H]5CC(=O)CC[C@]5(C)[C@H]4C[C@@H](O)[C@]23C)CO1 : IC50 beneath 30 µM, strictly?
Ans: No

Q: Item C[C@H](CC[C@@H](C)[C@H]1CC[C@H]2[C@@H]3C(=O)C=C4C[C@@H](O)CC[C@]4(C)[C@H]3CC[C@]12C)[C@@H]1C[C@H]1C : IC50 beneath 30 µM, strictly?
Ans: No

Q: Item CC1CC1C(C)CC(O)C(O)(CO)[C@H]1CC[C@H]2[C@@H]3CC[C@H]4CC(=O)CC[C@]4(C)[C@H]3C[C@@H](O)[C@]12C (stereo partly drawn) : IC50 beneath 30 µM, strictly?
Ans: Yes

Q: Item CC(CCC(C)(O)C1CCC2C3C(O)CC4CC(O)CCC4(C)C3CC(O)C21C)C1CC1C (stereo not drawn) : IC50 beneath 30 µM, strictly?
Ans: Yes

---

Entries annotated with measured IC50
System: MRC-5 (normal human embryonic lung fibroblasts)
TEST_PROTOCOL: Cytotoxicity toward normal cell line MRC-5
Format: cell-based
PARTICULARS: MRC5, MRC-5 normal cell line, mean ± S.D. (n = 3)
Description: In our study, several compounds (1–4, 6–8, 10, and 12–16) were evaluated for their cytotoxicity using a panel of human cancer cell lines, including MOLT-3 (acute lymphoblastic leukemia), HepG2 (hepatocarcinoma), A549 (human lung cancer), HuCCA-1 (human chlolangiocarcinoma), HeLa (cervical carcinoma), and MDA-MB-231 (hormone-independent breast cancer) as well as a normal cell line, MRC-5 (normal human embryonic lung fibroblasts).
Supply the numeric figure in µM, leaving out any unit text.

Observe how each entry below is paired with its result.
# MOLECULE, TEST_TARGET, RESULT_UNIT, IC50
data = [
    ("COC1(OC)CC[C@@]2(C)C(CC[C@H]3C4CC[C@H]([C@]5([C@@H](O)C[C@@H](C)[C@@H]6C[C@H]6C)CO5)[C@@]4(C)[C@H](O)C[C@@H]32)C1 (some centres unmarked)", "MRC-5 (normal human embryonic lung fibroblasts)", "µM", 49.6),
    ("CC1CC1C(C)CC(O)C(O)(CO)[C@H]1CC[C@H]2[C@@H]3CC[C@H]4CC(=O)CC[C@]4(C)[C@H]3C[C@@H](O)[C@]12C (some centres unmarked)", "MRC-5 (normal human embryonic lung fibroblasts)", "µM", 65.9),
    ("C[C@H](CC[C@@H](C)[C@H]1CC[C@H]2[C@@H]3C(=O)C=C4C[C@@H](O)CC[C@]4(C)[C@H]3CC[C@]12C)[C@@H]1C[C@H]1C", "MRC-5 (normal human embryonic lung fibroblasts)", "µM", 44.8),
]

Q: Query (molecule): COC1(OC)CC[C@@]2(C)C(CC[C@H]3C4CC[C@H]([C@@](O)(CO)[C@H](O)C[C@@H](C)[C@@H]5C[C@H]5C)[C@@]4(C)[C@H](O)C[C@@H]32)C1 (some centres unmarked) ; field requested: IC50
Ans: 37.7

Q: Query (molecule): C[C@H](CC[C@](C)(O)[C@H]1CC[C@@]2(O)[C@@H]3CC[C@H]4C[C@H](O)CC[C@]4(C)[C@H]3C[C@@H](O)[C@]12C)[C@@H]1C[C@H]1C ; field requested: IC50
Ans: 60.6

---

Tested on: HuCCA-1 (human chlolangiocarcinoma)
TEST_PROTOCOL: Cytotoxicity, MTT assay, HuCCA-1
Assay type: cell-based
PARTICULARS: HuCC-A1, mean ± S.D. (n = 3), MTT assay
QUANTITY_KIND: pIC50
Keep in mind that pIC50 stands for -log10 of concentration in molar terms.

# MOLECULE, pIC50
measured = [
    ("COc1cccc2c1C(=O)c1c(O)c3c(c(O)c1C2=O)C[C@@](O)(C(=O)CO)C[C@@H]3O[C@H]1C[C@H](N)[C@H](O)[C@H](C)O1 [Doxorubicin, reference compound]", 5.65),
    ("CC(CCC(C)(O)C1CCC2C3C(O)CC4CC(O)CCC4(C)C3CC(O)C21C)C1CC1C (stereo not drawn)", 4.67),
]

Turning now to a further record.
Q: What reported pIC50 corresponds to C[C@H](CC[C@](C)(O)[C@H]1CCC2[C@@H]3[C@H](O)C=C4C[C@@H](O)CC[C@]4(C)[C@H]3C[C@@H](O)[C@@]21C)[C@@H]1C[C@H]1C (stereo partly drawn) on HuCCA-1 (human chlolangiocarcinoma)?
Ans: 4.32

Just for reference, paper PMC5367011 is where these values come from.
